# Measurement target: Protein cereblon/Cyclin-dependent kinase 2/Cyclin-dependent kinase 9 (Homo sapiens, UniProt P24941+P50750+Q96SW2)
# Test: Protac activity at CRBN/CDK2/CDK9 in AR-negative human PC3 cells assessed as induction of CDK2 protein degradation after 24 hrs by Western blot analysis
# Type: cell-based
# Study conditions: PC-3
Activity calls are given as the source filed them. The calls are words filed in the database; no cut-off is given here.
// allowed return values: TRUE for active, FALSE for inactive

# example entries with known answers
[
  {
    "Compound": "O=C(CCC(=O)N1CCN(Cc2ccc(NC(=O)c3n[nH]cc3Nc3ncnc4[nH]ccc34)cc2)CC1)NCCNc1cccc2c1C(=O)N(C1CCC(=O)NC1=O)C2=O (centres undefined)",
    "Class assignment": "TRUE"
  },
  {
    "Compound": "O=C(CCC(=O)N1CCN(Cc2ccc(NC(=O)c3n[nH]cc3Nc3ncnc4[nH]ccc34)cc2)CC1)NCCCOCCOCCOCCCNC(=O)COc1cccc2c1C(=O)N(C1CCC(=O)NC1=O)C2=O (centres undefined)",
    "Class assignment": "FALSE"
  },
  {
    "Compound": "O=C(CCC(=O)N1CCN(Cc2ccc(NC(=O)c3n[nH]cc3Nc3ncnc4[nH]ccc34)cc2)CC1)NCCCCCCNC(=O)COc1cccc2c1C(=O)N(C1CCC(=O)NC1=O)C2=O (centres undefined)",
    "Class assignment": "FALSE"
  }
]

We next turn to a different compound, shown below.
Task item: Per the assay record, what outcome was assigned to O=C(CCC(=O)N1CCN(Cc2ccc(NC(=O)c3n[nH]cc3Nc3ncnc4[nH]ccc34)cc2)CC1)NCCCCNC(=O)COc1cccc2c1C(=O)N(C1CCC(=O)NC1=O)C2=O (centres undefined) ?
Reply: FALSE

###

# Measurement target: CDK9/cyclin T1 (Homo sapiens, UniProt P50750)
# Sequence (O60563 whole entry): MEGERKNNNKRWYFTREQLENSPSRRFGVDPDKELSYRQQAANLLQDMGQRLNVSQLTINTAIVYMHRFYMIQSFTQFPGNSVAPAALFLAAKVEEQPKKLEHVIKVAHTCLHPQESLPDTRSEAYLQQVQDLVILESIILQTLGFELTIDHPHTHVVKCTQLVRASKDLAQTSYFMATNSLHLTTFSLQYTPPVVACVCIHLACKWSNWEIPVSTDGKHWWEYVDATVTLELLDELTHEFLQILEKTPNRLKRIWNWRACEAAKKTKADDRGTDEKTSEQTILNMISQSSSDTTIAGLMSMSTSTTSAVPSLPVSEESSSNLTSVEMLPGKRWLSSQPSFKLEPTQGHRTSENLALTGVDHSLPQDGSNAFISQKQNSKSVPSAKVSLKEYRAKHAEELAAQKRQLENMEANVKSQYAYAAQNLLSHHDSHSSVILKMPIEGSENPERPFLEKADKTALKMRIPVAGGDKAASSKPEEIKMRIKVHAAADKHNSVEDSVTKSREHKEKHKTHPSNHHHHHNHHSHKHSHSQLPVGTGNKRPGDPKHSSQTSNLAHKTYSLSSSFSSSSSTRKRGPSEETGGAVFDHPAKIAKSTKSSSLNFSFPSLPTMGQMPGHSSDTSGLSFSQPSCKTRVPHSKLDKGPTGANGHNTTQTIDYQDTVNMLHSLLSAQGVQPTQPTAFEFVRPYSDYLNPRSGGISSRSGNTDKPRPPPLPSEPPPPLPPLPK
# Sequence (P50750 whole entry): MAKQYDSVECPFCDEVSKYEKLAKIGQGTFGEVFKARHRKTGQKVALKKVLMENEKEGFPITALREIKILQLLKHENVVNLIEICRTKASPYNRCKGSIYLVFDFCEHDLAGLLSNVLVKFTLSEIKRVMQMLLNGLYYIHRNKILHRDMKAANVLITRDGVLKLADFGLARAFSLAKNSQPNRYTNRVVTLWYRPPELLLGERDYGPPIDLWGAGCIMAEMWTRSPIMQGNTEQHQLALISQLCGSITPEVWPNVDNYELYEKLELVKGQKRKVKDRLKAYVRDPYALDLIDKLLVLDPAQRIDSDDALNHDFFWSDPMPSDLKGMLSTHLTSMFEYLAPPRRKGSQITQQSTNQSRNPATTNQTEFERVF
# Test: Inhibition of tracer K10 binding to NanoLuc-CDK9/Cyclin T1 (unknown origin) expressed in human HEK293 cells after 1 hr in presence of ATP by NanoBRET assay
Measurement type: pIC50
Recall that pIC50 is obtained by taking minus log10 of the concentration measured in molar.

Task item: For O=C(CCC(=O)N1CCN(Cc2ccc(NC(=O)c3n[nH]cc3Nc3ncnc4[nH]ccc34)cc2)CC1)NCCNc1cccc2c1C(=O)N(C1CCC(=O)NC1=O)C2=O (stereo unspecified) , what is its reported pIC50?
Reply: 7.84
